# Tested on: Hs-445 (Non-Cancerous);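 further: after 72 h of two-drug dosing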
# Assay text: Bliss excess, mean over the matrix (fraction); higher = more synergy
Reported metric: Bliss excess
Format: numeric value only, no unit, no commentary.

Would you kindly share the measured Bliss excess for CC1(C)CCC(CN2CCN(c3ccc(C(=O)NS(=O)(=O)c4ccc(NCC5CCOCC5)c([N+](=O)[O-])c4)c(Oc4cnc5[nH]ccc5c4)c3)CC2)=C(c2ccc(Cl)cc2)C1 [Venetoclax] + C1CN(CCC1(C(=O)N[C@@H](CCO)C2=CC=C(C=C2)Cl)N)C3=NC=NC4=C3C=CN4 [Capivasertib] (first compound max 1 µM, 7x7, partner max 3 µM) ?
0.0344

How about this compound: Cc1c2c(nn1C)CSCc1cc(n(C)n1)CSc1cc(c3ccccc3c1)OCCCc1c(C(=O)O)n(C)c3c-2c(Cl)ccc13 [AZD5991] + C=CCn1c(=O)c2cnc(Nc3ccc(N4CCN(C)CC4)cc3)nc2n1-c1cccc(C(C)(C)O)n1 [AZD1775] (first compound max 1 µM, partner max 1 µM)
0.0139

How about this compound: CC(=O)c1c(C)c2cnc(Nc3ccc(N4CCNCC4)cn3)nc2n(C2CCCC2)c1=O [Palbociclib] + CC1(C)CCC(CN2CCN(c3ccc(C(=O)NS(=O)(=O)c4ccc(NCC5CCOCC5)c([N+](=O)[O-])c4)c(Oc4cnc5[nH]ccc5c4)c3)CC2)=C(c2ccc(Cl)cc2)C1 [Venetoclax] (first compound max 10 µM, 7x7, partner max 1 µM)
0.119

How about this compound: CN(CCO)CC[C@H](CSc1ccccc1)Nc1ccc(S(=O)(=O)NC(=O)c2ccc(N3CCC([C@@H](O)c4ccccc4-c4ccc(Cl)cc4)CC3)cc2)cc1S(=O)(=O)C(F)(F)F [AZD4320] + Cn1cnc2c(F)c(Nc3ccc(Br)cc3Cl)c(C(=O)NOCCO)cc21 [Selumetinib] (first compound max 1 µM, 7x7, partner max 3 µM)
0.0606

How about this compound: CN(CCO)CC[C@H](CSc1ccccc1)Nc1ccc(S(=O)(=O)NC(=O)c2ccc(N3CCC([C@@H](O)c4ccccc4-c4ccc(Cl)cc4)CC3)cc2)cc1S(=O)(=O)C(F)(F)F [AZD4320] + Cc1cc2ncnn2cc1Nc1ncc2c(n1)n(C1CCOCC1)c(=O)n2C [AZD7648] (first compound max 1 µM, 7x7, partner max 10 µM)
0.0079

How about this compound: CN(CCO)CC[C@H](CSc1ccccc1)Nc1ccc(S(=O)(=O)NC(=O)c2ccc(N3CCC([C@@H](O)c4ccccc4-c4ccc(Cl)cc4)CC3)cc2)cc1S(=O)(=O)C(F)(F)F [AZD4320] + C[C@@H](Nc1cc(F)cc(F)c1)c1cc(C(=O)N(C)C)cc2c(=O)cc(N3CCOCC3)oc12 [AZD8186] (first compound max 1 µM, 7x7, partner max 3 µM)
0.0667
